- system: human mGlu5a receptor (Homo sapiens)
- Construct: expressed in transfected cells
- Sequence (P41594 21-1180 isoform P41594-2 limits assumed): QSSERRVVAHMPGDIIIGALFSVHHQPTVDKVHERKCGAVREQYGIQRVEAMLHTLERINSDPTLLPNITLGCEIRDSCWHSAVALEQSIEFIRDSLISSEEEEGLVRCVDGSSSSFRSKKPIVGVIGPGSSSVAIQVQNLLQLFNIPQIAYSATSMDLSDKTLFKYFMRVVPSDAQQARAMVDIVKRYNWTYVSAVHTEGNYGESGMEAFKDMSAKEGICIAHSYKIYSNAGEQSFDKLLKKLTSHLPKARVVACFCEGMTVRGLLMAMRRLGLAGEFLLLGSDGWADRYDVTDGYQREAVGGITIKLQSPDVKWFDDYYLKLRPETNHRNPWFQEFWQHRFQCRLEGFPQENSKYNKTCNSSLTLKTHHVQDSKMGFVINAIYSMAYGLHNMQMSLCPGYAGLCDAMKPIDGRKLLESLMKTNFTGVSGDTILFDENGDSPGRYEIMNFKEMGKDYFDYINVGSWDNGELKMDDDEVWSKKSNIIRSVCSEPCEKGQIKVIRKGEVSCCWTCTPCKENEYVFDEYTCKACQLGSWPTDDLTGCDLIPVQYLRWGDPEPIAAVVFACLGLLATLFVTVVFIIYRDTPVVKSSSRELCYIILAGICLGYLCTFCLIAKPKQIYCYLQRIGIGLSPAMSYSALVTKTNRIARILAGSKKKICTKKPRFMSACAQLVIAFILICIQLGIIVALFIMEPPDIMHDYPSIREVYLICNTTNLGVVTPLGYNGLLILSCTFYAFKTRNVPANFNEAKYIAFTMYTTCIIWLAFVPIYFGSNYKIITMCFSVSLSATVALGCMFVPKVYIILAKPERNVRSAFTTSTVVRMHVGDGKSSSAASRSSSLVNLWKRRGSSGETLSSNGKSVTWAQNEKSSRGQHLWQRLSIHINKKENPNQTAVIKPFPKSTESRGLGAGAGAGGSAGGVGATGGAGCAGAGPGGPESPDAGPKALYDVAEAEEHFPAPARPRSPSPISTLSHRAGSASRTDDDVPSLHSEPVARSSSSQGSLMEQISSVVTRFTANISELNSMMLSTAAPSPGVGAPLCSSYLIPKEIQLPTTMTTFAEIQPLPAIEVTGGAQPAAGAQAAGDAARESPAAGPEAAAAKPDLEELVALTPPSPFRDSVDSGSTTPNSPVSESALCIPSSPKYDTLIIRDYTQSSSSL
- protocol: Intracellular Ca2+ mobilization assay (mGlu5 PAM)
- Format: cell-based
- conditionContext: HEK-293 cells stably transfected with human mGlu5a; L-glutamate added at EC20 after 10-30 min pre-incubation with test compound; read-out: EC50 (nM) mGlu5PAM
- Source text: A monoclonal HEK-293 cell line stably transfected with a cDNA encoding for the human mGlu5a receptor was generated; for the work with mGlu5 Positive Allosteric Modulators (PAMs), a cell line with low receptor expression levels and low constitutive receptor activity was selected to allow the differentiation of agonistic versus PAM activity. […]
One threshold, 60 nM, splits the recorded EC50 values: lower ones are condition met, equal or higher ones are condition not met.

Consider the worked cases shown below.
CC(C)(C)c1cc2ncc(C#Cc3ccc(Cl)nc3)cn2n1	condition not met
Cc1cccc(C#Cc2cnc3nc(N4CCOCC4)nn3c2)c1	condition met
Cc1cc2ncc(C#Cc3ccncc3)cn2n1	condition not met
Fc1cccc(C#Cc2cnc3nc(N4CCOCC4)nn3c2)c1	condition met

Bench note: check whether `CC(C)c1cc2ncc(C#Cc3ccccc3)cn2n1` shows EC50 below 60 nM
condition met

I wonder whether `CC(C)(C)c1cc2ncc(C#Cc3ccc(F)c(F)c3)cn2n1` has EC50 below 60 nM. Can you tell?
condition met

Criterion: EC50 strictly below 60 nM. Is it met by `CC(C)(C)c1cc2ncc(C#Cc3ccccc3F)cn2n1` ?
condition met

Please let me know if `CC(C)(C)c1cc2ccc(C#Cc3ccccc3)cn2n1` shows EC50 below 60 nM.
condition met

In the record for `Cc1cc2ncc(C#Cc3ccc(F)cc3)cn2n1` , is EC50 less than 60 nM?
condition not met

# TODO verify EC50 < 60 nM strictly for this compound: `CC(C)(CO)c1nc2ccc(C#Cc3ccccc3)cn2n1`
condition not met
